The values you see were collected from patent US9580416B2.

biological target: EGFR (Homo sapiens)
Sequence (P00533 25-1210): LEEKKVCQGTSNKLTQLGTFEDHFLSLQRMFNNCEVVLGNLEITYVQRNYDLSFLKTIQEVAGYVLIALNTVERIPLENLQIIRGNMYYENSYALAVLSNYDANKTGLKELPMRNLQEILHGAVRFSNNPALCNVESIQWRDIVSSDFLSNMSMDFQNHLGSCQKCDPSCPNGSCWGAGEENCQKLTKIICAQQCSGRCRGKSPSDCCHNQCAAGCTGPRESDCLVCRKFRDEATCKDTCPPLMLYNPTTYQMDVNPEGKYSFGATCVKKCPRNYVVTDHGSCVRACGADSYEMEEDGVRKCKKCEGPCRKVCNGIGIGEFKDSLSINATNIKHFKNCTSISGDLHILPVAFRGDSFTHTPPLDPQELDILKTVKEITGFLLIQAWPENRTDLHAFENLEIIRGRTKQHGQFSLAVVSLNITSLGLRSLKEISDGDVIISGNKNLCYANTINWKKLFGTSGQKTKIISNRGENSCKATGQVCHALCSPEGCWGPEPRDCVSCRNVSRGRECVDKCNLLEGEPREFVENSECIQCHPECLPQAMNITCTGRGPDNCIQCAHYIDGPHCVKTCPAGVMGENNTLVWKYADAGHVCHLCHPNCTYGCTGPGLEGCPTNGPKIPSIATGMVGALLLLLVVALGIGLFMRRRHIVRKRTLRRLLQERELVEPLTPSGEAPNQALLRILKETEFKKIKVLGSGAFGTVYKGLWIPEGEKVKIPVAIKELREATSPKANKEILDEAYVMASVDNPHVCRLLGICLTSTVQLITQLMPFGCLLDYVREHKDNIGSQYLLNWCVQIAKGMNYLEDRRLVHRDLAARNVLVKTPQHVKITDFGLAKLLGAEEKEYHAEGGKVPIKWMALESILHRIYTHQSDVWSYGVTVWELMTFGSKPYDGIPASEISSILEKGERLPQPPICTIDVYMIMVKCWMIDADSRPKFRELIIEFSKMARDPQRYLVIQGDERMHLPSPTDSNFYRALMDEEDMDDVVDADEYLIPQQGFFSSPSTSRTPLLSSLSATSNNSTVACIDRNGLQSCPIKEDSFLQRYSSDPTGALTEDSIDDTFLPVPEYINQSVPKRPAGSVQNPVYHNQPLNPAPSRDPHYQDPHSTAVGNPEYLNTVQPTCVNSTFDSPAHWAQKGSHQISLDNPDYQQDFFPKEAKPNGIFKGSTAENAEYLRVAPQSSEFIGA
observable: IC50

Some solved cases for reference:
CN(C/C=C/C(=O)N1CC[C@@H](Nc2n[nH]c3nccc(Nc4ccc(Oc5ccccc5)cc4)c23)C1)C1CC1 [compound 23] | 0.1 to 1 µM
Cc1ccnc(NC(=O)c2ccc(Oc3ccnc4[nH]nc(N[C@@H]5CCCN(C(=O)N6CCOCC6)C5)c34)cc2)c1 [compound 91] | > 10 µM
Cc1ccnc(NC(=O)c2ccc(Oc3ccnc4[nH]nc(N[C@@H]5CCCN(C(=O)Oc6ccccc6)C5)c34)cc2)c1 [compound 93] | > 10 µM
CC(=O)N1CC[C@@H](Nc2n[nH]c3nccc(Oc4ccc(Oc5ccccc5)cc4)c23)C1 [compound 46] | 0.1 to 1 µM

Problem: Specify the recorded IC50 for c1ccc(Oc2ccc(Oc3ncnc4[nH]nc(N[C@@H]5CCCNC5)c34)cc2)cc1 [compound 50] , system: EGFR (Homo sapiens).
Result: > 10 µM

Problem: Specify the recorded IC50 for C=CC(=O)N1CCC[C@@H](Oc2n[nH]c3nccc(Nc4cccc(C(=O)Nc5ccc(C(C)C)c(C)c5)c4)c23)C1 [compound 132] , system: EGFR (Homo sapiens).
Result: < 0.1 µM

Problem: Specify the recorded IC50 for Cc1ccnc(NC(=O)c2ccc(Oc3ccnc4[nH]nc(N[C@@H]5CCCN(C#N)C5)c34)cc2)c1 [compound 276] , system: EGFR (Homo sapiens).
Result: 1 to 10 µM
